Recorded IC50 for the following compounds
Target: human Plasma Kallikrein (Homo sapiens (Human), UniProt P03952)
Sequence (P03952 391-638 limits assumed): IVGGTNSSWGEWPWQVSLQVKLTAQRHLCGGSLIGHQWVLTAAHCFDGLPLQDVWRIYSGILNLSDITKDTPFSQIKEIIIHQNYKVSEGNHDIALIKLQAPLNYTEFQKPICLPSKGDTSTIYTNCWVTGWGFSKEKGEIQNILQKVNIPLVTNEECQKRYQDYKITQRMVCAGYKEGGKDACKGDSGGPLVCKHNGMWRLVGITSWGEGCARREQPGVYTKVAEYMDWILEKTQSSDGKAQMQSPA
Sequence (P03952 20-390 partner limits assumed): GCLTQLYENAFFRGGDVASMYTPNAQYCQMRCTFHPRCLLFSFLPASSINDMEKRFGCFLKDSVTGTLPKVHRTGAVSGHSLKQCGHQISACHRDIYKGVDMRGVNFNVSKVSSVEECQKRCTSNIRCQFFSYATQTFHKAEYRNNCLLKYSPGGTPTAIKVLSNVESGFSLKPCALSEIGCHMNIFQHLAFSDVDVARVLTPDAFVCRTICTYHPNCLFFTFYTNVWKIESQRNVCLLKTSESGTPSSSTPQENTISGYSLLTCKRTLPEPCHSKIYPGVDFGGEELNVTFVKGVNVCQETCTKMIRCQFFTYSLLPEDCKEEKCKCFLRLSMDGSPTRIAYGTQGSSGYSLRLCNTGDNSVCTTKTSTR
Experiment: In vitro enzyme inhibition of human plasma kallikrein (Pro-Phe-Arg-AMC cleavage)
Assay type: biochemical
Settings: human plasma kallikrein, PFR-AMC substrate, 37° C.; read-out: hPK IC50
attribute measured: IC50

>>> result("Cc1cnc2ccc(Cn3cc(C(=O)NCc4ccc(N)nc4C)c(C#N)n3)cc2c1")
"< 100 nM"
>>> result("Cc1cc(N)nc(C)c1CNC(=O)c1cn(Cc2ccc3ncc(Cl)cc3c2)nc1C(C)O (centres unmarked)")
"< 100 nM"
>>> result("Cc1cc(N)nc(C)c1CNC(=O)c1cn(Cc2ccc3ncc(Cl)cc3c2)nn1")
"< 100 nM"
>>> result("Cc1cc(N)nc(C)c1CNC(=O)c1cn(Cc2ccc3ncc(Cl)cc3c2)c(CN)n1")
"100 to 1000 nM"
>>> result("Cc1cc(N)nc(C)c1CNC(=O)c1cn(Cc2ccc3ncc(Cl)cc3c2)nc1C(F)F")
"< 100 nM"
>>> result("Cc1cc(N)nc(C)c1CNC(=O)c1[nH]c(Cc2ccc3ncc(Cl)cc3c2)nc1Br")
"< 100 nM"
>>> result("Cc1cc(N)nc(C)c1CNC(=O)c1cn(Cc2ccc3ncc(C4CC4)cc3c2)nc1C#N")
"< 100 nM"
>>> result("Cc1cc(N)nc(C)c1CNC(=O)c1cn(Cc2ccc3ncc(Cl)cc3c2)nc1C(F)(F)F")
"< 100 nM"
>>> result("Cc1cc(N)nc(C)c1CNC(=O)c1nnc(Cc2ccc3ncc(Cl)cc3c2)o1")
"< 100 nM"
>>> result("Cc1cc(N)nc(C)c1CNC(=O)c1cn(Cc2ccc3ncc(Cl)cc3c2)nc1CF")
"< 100 nM"
>>> result("Cc1cc(N)nc(C)c1CNC(=O)c1cn(Cc2ccc3ncc(Cl)cc3c2)nc1CN")
"< 100 nM"
>>> result("Cc1nc(N)ccc1CNC(=O)c1cn(Cc2ccc3ncc(C(F)(F)F)cc3c2)nc1C#N")
"< 100 nM"
>>> result("N#Cc1nn(Cc2cc(F)c3ncc(Cl)cc3c2)cc1C(=O)NCc1cnc2[nH]cc(Cl)c2c1")
"< 100 nM"
>>> result("Cc1cc(N)nc(C)c1CNC(=O)c1cn(Cc2ccc3ncc(Cl)cc3c2)c2ncccc12")
"< 100 nM"
>>> result("N#Cc1nn(Cc2cc(F)c3ncc(Cl)cc3c2)cc1C(=O)NCc1ccc2c(N)nccc2c1")
"< 100 nM"
>>> result("Cc1cc(N)nc(C)c1CNC(=O)c1nn(Cc2ccc3ncc(Cl)cc3c2)cc1C#N")
"< 100 nM"
>>> result("Cc1cc(N)nc(C)c1CNC(=O)c1nn(Cc2ccc3ncc(Cl)cc3c2)c2ccnc(C#N)c12")
"< 100 nM"
>>> result("N#Cc1nn(Cc2ccc3ncc(Cl)cc3c2)cc1C(=O)NCc1ccc2[nH]cc(Cl)c2c1F")
"100 to 1000 nM"
>>> result("Cc1cc(N)nc(C)c1CNC(=O)c1cn(Cc2ccc3ncc(Cl)cc3c2)c(C(N)=O)n1")
"100 to 1000 nM"
>>> result("Cc1cc(N)nc(C)c1CNC(=O)c1nn(Cc2ccc3ncc(Cl)cc3c2)c2ccccc12")
"< 100 nM"
>>> result("Cc1cc(N)nc(C)c1CNC(=O)c1nn(Cc2ccc3ncc(Cl)cc3c2)c2cncc(C#N)c12")
"< 100 nM"
>>> result("Cc1cc(N)nc(C)c1CNC(=O)c1coc(Cc2ccc3ncc(Cl)cc3c2)n1")
"< 100 nM"
>>> result("Cc1cc(N)nc(C)c1CNC(=O)c1cn(Cc2cc(C#N)c3ncc(Cl)cc3c2)nc1C#N")
"< 100 nM"
>>> result("CCOC(=O)c1nc(C(=O)NCc2c(C)cc(N)nc2C)nn1Cc1ccc2ncc(Cl)cc2c1")
"> 10000 nM"
>>> result("Cc1cc(N)nc(C)c1CNC(=O)c1nnc(Cc2ccc3ncc(Cl)cc3c2)n1C")
"< 100 nM"
>>> result("N#Cc1nn(Cc2ccc3ncc(Cl)cc3c2)cc1C(=O)NCc1n[nH]c2ccc(Cl)cc12")
"100 to 1000 nM"
>>> result("Cc1cc(N)nc(C)c1CNC(=O)c1cn(Cc2ccc3ncc(Cl)cc3c2)nc1N")
"< 100 nM"
>>> result("Cc1cc(N)nc(C)c1CNC(=O)c1nc(Br)n(Cc2ccc3ncc(Cl)cc3c2)n1")
"< 100 nM"
>>> result("Cc1cc(N)nc(C)c1CNC(=O)c1noc(Cc2ccc3ncc(Cl)cc3c2)n1")
"< 100 nM"
>>> result("Cc1cc(N)nc(C)c1CNC(=O)c1cn(Cc2ccc3ncc(Cl)cc3c2)c2ncncc12")
"< 100 nM"
>>> result("Cc1cc(N)nc(C)c1CNC(=O)c1nn(Cc2ccc3ncc(Cl)cc3c2)c2cc[nH]c(=O)c12")
"1000 to 10000 nM"
>>> result("Cc1cc(N)nc(C)c1CNC(=O)c1cn(Cc2ccc3ncc(Cl)cc3c2)c2cncc(C#N)c12")
"< 100 nM"
